targetOrTestSystem: BRD4 (BD1+BD2) bromodomain (Homo sapiens (Human), UniProt O60885)
assayComment: BRD4 binding inhibition (AlphaScreen, GST-BRD4 vs tetraacetylated histone H4 peptide)
runConditions: GST-BRD4 (BD1+BD2) vs biotinylated acetyl-histone H4 peptide, AlphaScreen; read-out: BRD4 IC50
Entries and their IC50
valueType: IC50

chemicalsmiles=COc1ccc2c(c1)nc(NCCCCNC(=O)OCC(C)C)c1nnc(C)n12 valuetype=IC50 resultvalue="18 nM"
chemicalsmiles=Cc1nnc2c(NCCCCNC(=O)[C@H](O)C(C)C)nc3cc(F)c(F)cc3n12 valuetype=IC50 resultvalue="97 nM"
chemicalsmiles=Cc1nnc2c(NCCCCNC(=O)Oc3ccccc3)nc3cc4c(cc3n12)OCCO4 valuetype=IC50 resultvalue="10 nM"
chemicalsmiles=CCc1nnc2c(NCCCCNC(=O)CC(C)C)nc3cc(OC)c(OC)cc3n12 valuetype=IC50 resultvalue="18 nM"
chemicalsmiles=CCCOC(=O)NCCCCNc1nc2cc(OC)c(OC)cc2n2c(C)nnc12 valuetype=IC50 resultvalue="20 nM"
